# Tested on: murine dermal fibroblasts
# ASSAY: RNA-Seq of newborn murine dermal fibroblasts
# Format: cell-based, mouse
# SETUP CONDITIONS: 10^−7 M, 24 h

MOLECULE	Slc15a4 expression level
C=C1CCC(O)CC1=CC=C1CCCC2(C)C1CCC2C(C)(O)CC(O)CC(C)C (stereo not shown)	15.7859
CC(C)CCC[C@](C)(O)[C@H]1CC[C@H]2[C@@H]3CC=C4C[C@@H](O)CC[C@]4(C)[C@H]3CC[C@@]21C [20(OH)C, 20-hydroxycholesterol, reference compound]	13.0176
C=C1C(=CC=C2CCCC3(C)C2CCC3C(C)(O)CC(O)CC(C)C)CC(O)CC1O (stereo not shown)	13.3996
C=C1/C(=C\C=C2/CCC[C@]3(C)[C@@H]([C@H](C)CCCC(C)(C)O)CC[C@@H]23)C[C@@H](O)C[C@@H]1O [1,25(OH)2D3, reference compound]	20.8062

* * *

# System: murine dermal fibroblasts
# ASSAY: RNA-Seq of newborn murine dermal fibroblasts
# Type: cell-based, mouse
# SETUP CONDITIONS: 10^−7 M, 24 h
PARAMETER MEASURED: Rsad1 expression level

MOLECULE	STUDY TARGET	EXPERIMENTAL RESULT
C=C1/C(=C\C=C2/CCC[C@]3(C)[C@@H]([C@H](C)CCCC(C)(C)O)CC[C@@H]23)C[C@@H](O)C[C@@H]1O [1,25(OH)2D3, reference compound]	murine dermal fibroblasts	1.447
C=C1CCC(O)CC1=CC=C1CCCC2(C)C1CCC2C(C)(O)CC(O)CC(C)C (stereo not shown) [20,23(OH)2D3]	murine dermal fibroblasts	1.045
CC(C)CCC[C@](C)(O)[C@H]1CC[C@H]2[C@@H]3CC=C4C[C@@H](O)CC[C@]4(C)[C@H]3CC[C@@]21C [20(OH)C, 20-hydroxycholesterol, reference compound]	murine dermal fibroblasts	1.413
C=C1C(=CC=C2CCCC3(C)C2CCC3C(C)(O)CC(O)CC(C)C)CC(O)CC1O (stereo not shown) [1,20,23(OH)3D3]	murine dermal fibroblasts	1.419

* * *

# Tested on: murine dermal fibroblasts
# ASSAY: RNA-Seq of newborn murine dermal fibroblasts
# Type: cell-based, mouse
# SETUP CONDITIONS: 10^−7 M, 24 h
Quick reference for number of genes upregulated, FC ≥ 2 among some molecules
PARAMETER MEASURED: number of genes upregulated, FC ≥ 2

MOLECULE	EXPERIMENTAL RESULT
C=C1/C(=C\C=C2/CCC[C@]3(C)[C@@H]([C@H](C)CCCC(C)(C)O)CC[C@@H]23)C[C@@H](O)C[C@@H]1O [1,25(OH)2D3, reference compound]	601
C=C1C(=CC=C2CCCC3(C)C2CCC3C(C)(O)CC(O)CC(C)C)CC(O)CC1O (stereo not shown)	531
CC(C)CCC[C@](C)(O)[C@H]1CC[C@H]2[C@@H]3CC=C4C[C@@H](O)CC[C@]4(C)[C@H]3CC[C@@]21C [20(OH)C, 20-hydroxycholesterol, reference compound]	564
C=C1CCC(O)CC1=CC=C1CCCC2(C)C1CCC2C(C)(O)CC(O)CC(C)C (stereo not shown)	437

* * *

# System: murine dermal fibroblasts
# ASSAY: RNA-Seq of newborn murine dermal fibroblasts
# Assay type: cell-based, mouse
# SETUP CONDITIONS: 10^−7 M, 24 h

COMPOUND	STUDY TARGET	Cd200 expression level
C=C1CCC(O)CC1=CC=C1CCCC2(C)C1CCC2C(C)(O)CC(O)CC(C)C (stereo not shown) [20,23(OH)2D3]	murine dermal fibroblasts	0.493
CC(C)CCC[C@](C)(O)[C@H]1CC[C@H]2[C@@H]3CC=C4C[C@@H](O)CC[C@]4(C)[C@H]3CC[C@@]21C [20(OH)C, 20-hydroxycholesterol, reference compound]	murine dermal fibroblasts	0.446
C=C1C(=CC=C2CCCC3(C)C2CCC3C(C)(O)CC(O)CC(C)C)CC(O)CC1O (stereo not shown) [1,20,23(OH)3D3]	murine dermal fibroblasts	0.5777
C=C1/C(=C\C=C2/CCC[C@]3(C)[C@@H]([C@H](C)CCCC(C)(C)O)CC[C@@H]23)C[C@@H](O)C[C@@H]1O [1,25(OH)2D3, reference compound]	murine dermal fibroblasts	0.3998
